- subject_of_test: T1, cynomolgus (Macaca fascicularis) ST2L extracellular domain with C-terminal His6 tag (Macaca fascicularis (cynomolgus), UniProt Q01638 19-321 (human entry))
- T1 construct: also called cyno ST2L-ECD; cynoST2L-ECD
- T1 chain: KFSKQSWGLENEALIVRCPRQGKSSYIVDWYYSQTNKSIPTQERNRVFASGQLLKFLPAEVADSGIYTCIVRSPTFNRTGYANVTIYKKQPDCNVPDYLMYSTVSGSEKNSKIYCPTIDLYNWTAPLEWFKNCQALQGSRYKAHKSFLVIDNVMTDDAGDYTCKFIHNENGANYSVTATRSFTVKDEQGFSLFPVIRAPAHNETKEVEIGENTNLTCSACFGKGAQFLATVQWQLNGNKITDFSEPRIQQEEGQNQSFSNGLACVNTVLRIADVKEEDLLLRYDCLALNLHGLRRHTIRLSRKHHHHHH
- method_summary: SPR, mAb captured, ST2L-ECD in solution
Reported kon by item:

binder	unit_of_measurement	kon
STLM108 (antibody, V domains shown, frameworks VH3-23 / Vk-L6) VH: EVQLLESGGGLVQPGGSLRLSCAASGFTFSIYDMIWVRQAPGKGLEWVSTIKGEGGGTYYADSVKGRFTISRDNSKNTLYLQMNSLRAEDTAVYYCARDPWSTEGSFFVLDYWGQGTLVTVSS VL: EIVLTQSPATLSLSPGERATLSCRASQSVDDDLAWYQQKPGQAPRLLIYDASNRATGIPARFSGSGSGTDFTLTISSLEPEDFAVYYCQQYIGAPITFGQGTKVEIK	M⁻¹ s⁻¹	2.05e+07
STLM208 (antibody, V domains shown, frameworks VH3-23 / Vk-L6) VH: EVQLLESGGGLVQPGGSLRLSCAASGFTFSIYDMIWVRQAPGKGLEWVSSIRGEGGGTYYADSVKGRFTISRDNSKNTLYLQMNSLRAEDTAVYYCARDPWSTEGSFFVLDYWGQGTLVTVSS VL: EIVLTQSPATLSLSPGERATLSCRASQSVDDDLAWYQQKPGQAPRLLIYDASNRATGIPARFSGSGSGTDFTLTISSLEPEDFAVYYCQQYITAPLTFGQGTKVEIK	M⁻¹ s⁻¹	1.39e+07
